target_system: T1, EsCas13d, nuclease-dead (Eubacterium siraeum, UniProt B0MS50, R295A;H300A;R849A;H854A)
T1 sequence: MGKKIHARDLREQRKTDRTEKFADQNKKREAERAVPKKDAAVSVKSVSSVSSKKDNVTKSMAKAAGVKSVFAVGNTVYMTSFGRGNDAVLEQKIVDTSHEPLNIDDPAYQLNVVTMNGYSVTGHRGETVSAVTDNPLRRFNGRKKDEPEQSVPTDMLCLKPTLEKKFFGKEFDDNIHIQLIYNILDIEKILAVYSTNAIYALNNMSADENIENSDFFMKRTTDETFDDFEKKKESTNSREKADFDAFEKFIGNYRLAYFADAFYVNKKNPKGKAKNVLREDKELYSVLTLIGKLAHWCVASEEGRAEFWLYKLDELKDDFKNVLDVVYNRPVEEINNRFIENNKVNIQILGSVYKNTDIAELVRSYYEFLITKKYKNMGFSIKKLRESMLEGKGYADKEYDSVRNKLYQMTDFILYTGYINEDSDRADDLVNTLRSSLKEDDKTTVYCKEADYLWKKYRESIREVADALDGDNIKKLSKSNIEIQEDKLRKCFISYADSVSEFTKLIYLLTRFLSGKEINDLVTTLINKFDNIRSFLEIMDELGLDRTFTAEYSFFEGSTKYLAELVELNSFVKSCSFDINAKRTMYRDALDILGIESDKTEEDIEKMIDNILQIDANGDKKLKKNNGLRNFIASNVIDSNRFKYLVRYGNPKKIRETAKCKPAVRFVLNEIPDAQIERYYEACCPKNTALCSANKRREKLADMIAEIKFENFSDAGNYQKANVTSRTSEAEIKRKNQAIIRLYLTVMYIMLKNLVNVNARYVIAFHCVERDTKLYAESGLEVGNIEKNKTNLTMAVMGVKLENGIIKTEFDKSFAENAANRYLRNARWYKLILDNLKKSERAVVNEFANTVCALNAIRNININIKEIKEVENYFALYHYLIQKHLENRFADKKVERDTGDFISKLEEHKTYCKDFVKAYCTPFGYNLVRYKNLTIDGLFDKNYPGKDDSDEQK
measurement_description: crRNA (strand 1, pre-loaded); Mg2+; 40 mM Tris-HCl pH 7.5, 150 mM NaCl, 6 mM MgCl2, 1 mM DTT, 0.1% Tween-20, 0.2 mg/ml BSA; 25 C; 10 min per concentration, then washed
setup_conditions: tags: His6-TwinStrep-SUMO cleaved; N-terminal SNAP kept (SNAP-Surface 488); label: 3' end held by stalled T7 RNA polymerase
measure: pKd
The scale used: pKd is minus the common logarithm of the concentration in molar units.

Please review the entries below; each comes with its answer.
target 1 G12U,A16C (mixed) RNA 1: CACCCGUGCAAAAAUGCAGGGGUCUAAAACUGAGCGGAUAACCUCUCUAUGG RNA 2: GGGAAUGGAUCCACAUCUACGAAUUCGUACCAUAGCGAGUUUAUCCGCUCACCGAGAUCGGAAGAGCACACGU	7.12
target 1 MT 5'PFS AAG 3'PFS UGC (mixed) RNA 1: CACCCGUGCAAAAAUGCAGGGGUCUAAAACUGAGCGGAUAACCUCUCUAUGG RNA 2: GGGAAUGGAUCCACAUCUACGAAUUCAAGCCAUAGAGAGGUUAUCCGCUCAUGCAGAUCGGAAGAGCACACGU	7.29
target 1 U8G,G17C (mixed) RNA 1: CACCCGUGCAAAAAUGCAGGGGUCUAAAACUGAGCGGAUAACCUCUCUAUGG RNA 2: GGGAAUGGAUCCACAUCUACGAAUUCGUACCAUACAGAGGUUAGCCGCUCACCGAGAUCGGAAGAGCACACGU	7.14
target 1 MT 5'PFS AUG 3'PFS AUU (mixed) RNA 1: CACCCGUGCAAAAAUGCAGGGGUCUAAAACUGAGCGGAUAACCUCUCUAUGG RNA 2: GGGAAUGGAUCCACAUCUACGAAUUCAUGCCAUAGAGAGGUUAUCCGCUCAAUUAGAUCGGAAGAGCACACGU	7.94

Looking up target 2 MT 5'PFS UAU 3'PFS CGC (mixed) RNA 1: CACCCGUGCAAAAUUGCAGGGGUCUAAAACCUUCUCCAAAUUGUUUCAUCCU RNA 2: GGGAAUGGAUCCACAUCUACGAAUUCUAUAGGAUGAAACAAUUUGGAGAAGCGCAGAUCGGAAGAGCACACGU , I see its pKd listed as 7.12

Looking up target 2 MT 5'PFS AAU 3'PFS CAA (mixed) RNA 1: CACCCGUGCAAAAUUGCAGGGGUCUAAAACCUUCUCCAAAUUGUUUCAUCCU RNA 2: GGGAAUGGAUCCACAUCUACGAAUUCAAUAGGAUGAAACAAUUUGGAGAAGCAAAGAUCGGAAGAGCACACGU , I see its pKd listed as 8.37

Looking up target 1 U8C,A20C (mixed) RNA 1: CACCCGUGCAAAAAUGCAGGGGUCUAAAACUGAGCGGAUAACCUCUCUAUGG RNA 2: GGGAAUGGAUCCACAUCUACGAAUUCGUACCCUAGAGAGGUUACCCGCUCACCGAGAUCGGAAGAGCACACGU , I see its pKd listed as 7.19

Looking up target 3 insU 3' of 14,insU 3' of 5 (mixed) RNA 1: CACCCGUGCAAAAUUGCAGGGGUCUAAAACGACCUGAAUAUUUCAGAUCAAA RNA 2: GGGAAUGGAUCCACAUCUACGAAUUCGUUUUUGAUCUGUAAAUAUUCAUGGUCUGCAGAUCGGAAGAGCACACGU , I see its pKd listed as 7.08

Looking up target 1 MT 5'PFS GUG 3'PFS AUG (mixed) RNA 1: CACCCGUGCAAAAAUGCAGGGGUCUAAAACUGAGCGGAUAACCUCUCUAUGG RNA 2: GGGAAUGGAUCCACAUCUACGAAUUCGUGCCAUAGAGAGGUUAUCCGCUCAAUGAGAUCGGAAGAGCACACGU , I see its pKd listed as 7.79
